- system-name: CB1 (CB1-Nluc) (Homo sapiens)
- Construct: CB1 with C-terminal NanoLuc (CB1-Nluc), stably co-expressed in HEK293-TR cells with NES-venus-mini-Gsi (Gs-based chimera with Gi1 C-terminal residues) as BRET acceptor
- Sequence (P21554 whole entry): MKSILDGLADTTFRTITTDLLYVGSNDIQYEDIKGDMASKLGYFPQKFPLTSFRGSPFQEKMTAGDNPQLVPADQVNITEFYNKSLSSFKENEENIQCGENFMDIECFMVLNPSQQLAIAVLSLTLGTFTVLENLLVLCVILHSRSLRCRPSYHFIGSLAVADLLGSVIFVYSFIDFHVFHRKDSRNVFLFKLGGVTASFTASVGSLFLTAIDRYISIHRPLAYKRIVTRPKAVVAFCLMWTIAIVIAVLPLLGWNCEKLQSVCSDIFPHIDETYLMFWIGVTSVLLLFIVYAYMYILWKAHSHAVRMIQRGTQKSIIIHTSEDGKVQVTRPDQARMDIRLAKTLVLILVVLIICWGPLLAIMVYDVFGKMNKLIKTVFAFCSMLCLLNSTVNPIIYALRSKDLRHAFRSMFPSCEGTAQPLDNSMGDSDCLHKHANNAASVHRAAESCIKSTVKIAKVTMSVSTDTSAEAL
- assay-notes: NanoBRET venus-mini-Gsi recruitment
assay-metric: EC50 (nM)
Express the result in nM but write the number alone.

Data request: So what does the record say about EC50 for CCCCCCC(C)(C)c1cc(O)c2c(c1)OC(C)(C)[C@@H]1CC=C(CO)C[C@@H]21 [HU210] ?
Data returned: 2.4

Data request: Look up EC50: CCCCCCC(C)(C)c1cc(O)c2c(c1)OC(C)(C)[C@@H]1CC[C@@H](CO)C[C@@H]21 [HU243]
Data returned: 2.04

Data request: Given CC(C)(CCCCCCN=C=S)c1cc(O)c2c(c1)OC(C)(C)[C@@H]1CC[C@@H](CO)C[C@@H]21 [AM841] , state its recorded EC50.
Data returned: 3.39

Data request: Which value of EC50 has been reported for CC1=CC[C@@H]2[C@@H](C1)c1c(O)cc(C(C)(C)CCCCCCBr)cc1OC2(C)C [AM11542] in the records?
Data returned: 3.39

* * *

- system-name: CB1 (CB1-Nluc) (Homo sapiens)
- Construct: CB1 with C-terminal NanoLuc (CB1-Nluc), stably co-expressed in HEK293-TR cells with NES-venus-mini-Gsi (Gs-based chimera with Gi1 C-terminal residues) as BRET acceptor
- assay-notes: NanoBRET venus-mini-Gsi recruitment
Field: pEC50. Provide a value for each of the compounds that follow.
Entry type: numeric. Quantity: pEC50, the -log10 of concentration in molar units.

Data request: Name the reported pEC50 value associated with the compound CCCC(C)(C)c1ccc2c(c1)OC(C)(C)[C@@H]1CC=C(C)C[C@@H]21
Data returned: 5.94

Data request: Can you share its pEC50? I mean this compound: CCCc1cc(O)c2c(c1)OC(C)(C)[C@@H]1CCC(C)=C[C@@H]21
Data returned: 6.70

Data request: What value of measured pEC50 is listed for CCCCCCC(C)(C)c1cc(O)c2c(c1)OC(C)(C)C1CCC(=O)CC21 (stereo not shown) ?
Data returned: 7.86

Data request: Endpoint output: pEC50 of CCCCCCC(C)(C)c1cc(OC)c2c(c1)OC(C)(C)[C@@H]1CC=C(C)C[C@@H]21 . Value?
Data returned: 6.38

Source listed as paper PMC11711184.
